- target.or.system: Alpha-2C adrenergic receptor (Homo sapiens) (UniProt P18825)
- Sequence (P18825 whole entry, looked up): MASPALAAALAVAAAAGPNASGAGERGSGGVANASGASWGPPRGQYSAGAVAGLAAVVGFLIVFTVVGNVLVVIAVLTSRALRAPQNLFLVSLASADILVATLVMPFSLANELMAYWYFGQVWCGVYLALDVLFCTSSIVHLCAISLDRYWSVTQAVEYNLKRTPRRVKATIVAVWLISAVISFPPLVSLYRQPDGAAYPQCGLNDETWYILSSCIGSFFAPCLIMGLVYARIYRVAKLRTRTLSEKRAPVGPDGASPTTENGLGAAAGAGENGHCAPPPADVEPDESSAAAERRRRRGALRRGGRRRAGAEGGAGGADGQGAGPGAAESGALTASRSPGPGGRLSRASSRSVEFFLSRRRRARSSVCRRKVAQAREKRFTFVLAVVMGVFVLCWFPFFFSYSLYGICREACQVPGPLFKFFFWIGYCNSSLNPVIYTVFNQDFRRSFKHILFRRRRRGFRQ
- procedure.details: modulators of alpha2C/GIRK thallium flux, primary screen, cell-based, HEK293 alpha2C/GIRK1/2 (AID 624);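 note: slope of fluorescence ratio to pre-addition baseline per second over 15 to 24 s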
- measurement.context: thallium flux BTC fluorescence, at 10 µM, actives lie on both sides
Calls of active or inactive are those of the source.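 Rule for the calls: active = fluorescence slope after compound addition differing from the mean of all screened samples at 99.7% confidence, in either direction; inactive = the rest.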
Classes used: true (1) = active, false (0) = inactive

• Brc1c(NC2=NCCN2)ccc2nccnc12 = true (1)
• COCCN(CCOC)C(=O)C12CCC(C)(C(=O)C1)C2(C)C (stereo not drawn) = false (0)
• Cc1ccc(C2C3CN(C(C)C)CC=C3C(C#N)=C(N)C2(C#N)C#N)cc1 (stereo not drawn) = true (1)
• Fc1ccc(C2C3=C(Nc4ncnn42)c2ccccc2OC3c2ccncc2)cc1 (stereo not drawn) = false (0)
• COc1ccc(/C(O)=C2\C(=O)C(=O)N(CCN(C)C)C2c2cccc(OC)c2OC)cc1 (stereo not drawn) = false (0)
• COc1ccc(Cn2c(CCCO)nc3ccccc32)cc1OC = false (0)
• CCOC(=O)c1[nH]c2cc3c(cc2c1NC(=O)CN1CCCCC1C)OCO3 (stereo not drawn) = false (0)
• NC(=O)CSc1nc(N)c2c3c(sc2n1)CCCCC3 = false (0)
• Cc1nc(Nc2ncc3c(n2)CCCC3=O)nc2ccccc12 = false (0)
• CN1CCN(CCCN2c3ccccc3Sc3ccc(C(F)(F)F)cc32)CC1 = false (0)
• COc1ccc(-c2nc3n(c2Br)CCC3)cc1 = false (0)
• CO[C@@]1(NC(=O)CSCC#N)C(=O)N2C(C(=O)O)=C(CSc3nnnn3C)CS[C@@H]21 = false (0)
• CC(C)(C)n1nnc(CCc2nnn(C(C)(C)C)n2)n1 = false (0)
• CN1CCc2nc(SCC(=O)Nc3ccc(Cl)cc3)c(C#N)cc2C1 = false (0)
• N#CC1=C(N)N2C(=C(C#N)C1c1ccccc1)Sc1ccccc12 (stereo not drawn) = false (0)
• CCOC(=O)N1CC=C2C(C#N)=C(N)C(C#N)(C#N)[C@H](c3cccs3)[C@H]2C1 = false (0)
• CC1(C)Cc2c(C#N)c(N3CCOCC3)nc(-c3ccccc3)c2CO1 = false (0)
• CC(=O)Oc1cc(C(C)C)c(OCCN(C)C)cc1C = false (0)
• CC(=O)Nc1ccc(S(=O)(=O)Nc2nc3n(n2)C(c2ccccc2)CC(=O)N3)cc1 (stereo not drawn) = false (0)
• N#Cc1nc(-c2cccs2)oc1NCCc1ccccc1 = false (0)
• COCCCNC(=O)C(C#N)c1nc2ccccc2nc1N1CCCC1 (stereo not drawn) = false (0)
• COC(=O)C1=C(N)Oc2cc(C)[nH]c(=O)c2C1c1ccncc1 (stereo not drawn) = false (0)
• Cc1ccc(N2C(=O)CC(N(O)C3CC(=O)N(c4ccc(C)cc4)C3=O)C2=O)cc1 (stereo not drawn) = false (0)
• CC(C)CN1C(=O)NC(NC(=O)c2cccnc2)(C(F)(F)F)C1=O (stereo not drawn) = false (0)
• O=C(C1=C(O)C(=O)N(c2ncccn2)C1c1cccc(Cl)c1)c1ccco1 (stereo not drawn) = false (0)
• CCOc1cccc(-c2nnc3sc(C4CCCCC4)nn23)c1 = false (0)
• COc1ccccc1N1CCN(C(=O)c2c(C)cc(=O)oc2C)CC1 = false (0)
• COc1ccccc1-n1c(=O)c2c3c(sc2n2c(SC(C)C)nnc12)CCC3 = false (0)
• COCCN(C(=O)Nc1ccccc1)c1ccccc1C = false (0)
• CC1CCCCN1C(=O)C12CCC(C)(/C(=N/O)C1)C2(C)C (stereo not drawn) = false (0)
• CC1CCN(c2oc(-c3ccccc3Cl)nc2C#N)CC1 = false (0)
• CCOc1ccc(C2/C(=C(/O)c3ccc(OC)cc3)C(=O)C(=O)N2c2cc(C)on2)cc1OC (stereo not drawn) = false (0)
• COc1cccc(-c2nc(N3CCN(Cc4ccccc4)CC3)c3ccccc3n2)c1O = false (0)
• N[C@@H](C(=O)N[C@@H]1C(=O)N2C(C(=O)O)=C(Cl)CS[C@H]12)c1ccccc1 = false (0)
• CCCCCC(=O)N1CC2(CC)CN(C(=O)CCCCC)CC(CC)(C1)C2=O = false (0)
• COc1cccc(C2/C(=C(/O)c3cnn(-c4ccccc4)c3C)C(=O)C(=O)N2CCN(C)C)c1OC (stereo not drawn) = false (0)
• CC(=O)Nc1cc2c(cc1Br)OCCO2 = false (0)
• COc1ccc(NC(=O)CSC2=C(C#N)C(c3ccco3)C3=C(CCCC3=O)N2)c(OC)c1 (stereo not drawn) = false (0)
• CC(=O)OCC(=O)[C@@]12OC3(CCCC3)O[C@@H]1C[C@H]1[C@@H]3CCC4=CC(=O)C=C[C@]4(C)[C@@]3(F)[C@@H](O)C[C@@]12C = false (0)
• Cn1nnnc1-c1cc(Br)ccc1NC(=O)c1ccccc1 = false (0)
• NS(=O)(=O)c1ccc(C(=O)O)cc1 = false (0)
• CCOc1nc(SC(C(C)=O)C(=O)Nc2ccccc2)nc(N(C)C)n1 (stereo not drawn) = false (0)
• CCc1cccc(C)c1N(C(=O)Cn1c(=O)[nH]c2ccccc21)C(C)COC (stereo not drawn) = false (0)
